assayed_system: T1, Terbium (Tb) labeled-SNAP tagged ROBO2 expressed on HEK293 cells (Homo sapiens (Human), UniProt Q9HCK4 22-1378, terbium label on the SNAP tag)
T1 construct: also called Tb-labeled ROBO2 cells; ROBO2 expressing cells; not shown: SNAP tag
T1 sequence: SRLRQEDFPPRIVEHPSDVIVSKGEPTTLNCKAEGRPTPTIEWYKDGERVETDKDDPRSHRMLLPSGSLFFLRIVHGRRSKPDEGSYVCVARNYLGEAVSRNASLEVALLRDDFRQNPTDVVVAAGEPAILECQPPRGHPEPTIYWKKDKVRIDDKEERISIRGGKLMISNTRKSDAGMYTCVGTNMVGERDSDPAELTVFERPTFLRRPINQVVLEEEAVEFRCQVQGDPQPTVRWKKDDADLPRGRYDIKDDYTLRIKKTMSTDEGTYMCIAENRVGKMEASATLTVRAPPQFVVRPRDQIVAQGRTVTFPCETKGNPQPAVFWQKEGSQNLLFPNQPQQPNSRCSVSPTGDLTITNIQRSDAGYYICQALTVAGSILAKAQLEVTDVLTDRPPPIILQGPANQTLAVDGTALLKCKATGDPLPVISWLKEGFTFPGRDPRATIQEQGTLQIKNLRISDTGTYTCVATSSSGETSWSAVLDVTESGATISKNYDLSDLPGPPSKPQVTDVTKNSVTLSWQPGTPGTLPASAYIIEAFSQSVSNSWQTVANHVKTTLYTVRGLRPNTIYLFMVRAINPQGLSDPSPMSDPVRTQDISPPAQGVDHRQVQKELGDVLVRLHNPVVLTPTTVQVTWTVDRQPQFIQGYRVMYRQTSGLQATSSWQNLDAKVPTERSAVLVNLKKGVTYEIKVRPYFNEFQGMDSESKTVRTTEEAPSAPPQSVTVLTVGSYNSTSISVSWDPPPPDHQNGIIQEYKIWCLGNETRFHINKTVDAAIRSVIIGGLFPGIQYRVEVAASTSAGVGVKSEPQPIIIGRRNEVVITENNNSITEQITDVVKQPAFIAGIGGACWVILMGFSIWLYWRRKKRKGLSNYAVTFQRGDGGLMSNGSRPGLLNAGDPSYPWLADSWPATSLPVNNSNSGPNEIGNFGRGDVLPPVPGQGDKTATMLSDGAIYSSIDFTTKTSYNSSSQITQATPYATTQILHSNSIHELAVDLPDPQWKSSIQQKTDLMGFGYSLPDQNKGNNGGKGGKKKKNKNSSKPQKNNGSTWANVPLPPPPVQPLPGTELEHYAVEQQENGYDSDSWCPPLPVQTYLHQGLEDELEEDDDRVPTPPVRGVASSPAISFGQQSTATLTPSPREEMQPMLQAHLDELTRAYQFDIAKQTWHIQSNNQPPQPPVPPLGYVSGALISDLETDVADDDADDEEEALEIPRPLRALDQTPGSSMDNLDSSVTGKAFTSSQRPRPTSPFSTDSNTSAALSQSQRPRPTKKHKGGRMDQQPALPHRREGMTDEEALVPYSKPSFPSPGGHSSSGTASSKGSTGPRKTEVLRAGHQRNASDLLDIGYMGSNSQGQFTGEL
protocol: HTRF, 5 nM d2-SLIT2-N on Tb-SNAP-ROBO2 HEK293 cells, 1 nM antibody
assay_endpoint: HTRF Ratio
Give your answer as a number; write no unit.

Abcs12 (antibody, human IgG1, kappa, V domains shown, chain-shuffled IgG; also called Abes12) VH: EVQLVQSGAEVKKPGASVKVSCKASGYTFTGYYMHWVRQAPGQGLEWMGWINPRNGITSFPQKFQGRVTMTRDTSITTAYMDLSRLRSDDTAVYYCARESGDDAFDIWGQGTMVTVSS VL: DIVMTQSPSSLSASVGDRVTITCRASQSISSYLNWYQQKPGKAPKLLIYAASSLQSGVPSRFSGSGSGTDFTLTISSLQPEDFATYYCQQSLELGFGGGTKVEIKR | 2910
CTIR2-12 (antibody, human IgG1, kappa, V domains shown, CDR-shuffled IgG) VH: EVQLVQSGAEVKKPGASVKVSCKASGYTFRGYAMHWVRQAPGQGLEWMGWIDPRTGLTKFPQKFQGRVTMTRDTSITTAYMDLSRLRSDDTAVYYCARESGDDAFDIWGQGTMVTVSS VL: DIVMTQSPSSLSASVGDRVTITCRASQKISSYLNWYQQKPGKAPKLLIYAASSLQSGVPSRFSGSGSGTDFTLTISSLQPEDFATYYCQQSYSTSFGGGTKVEIKR | 4580
Ab112 (antibody, human IgG1, kappa, V domains shown, full-length human IgG) VH: EVQLVQSGAEVKKPGASVKVSCKASGYTFTGYYMHWVRQAPGQGLEWMGWINPNSGATNFPQKFQGRVTMTRDTSITTAYMDLSRLRSDDTAVYYCARESGDDAFDIWGQGTMVTVSS VL: DIVMTQSPSSLSASVGDRVTITCRASQSISSYLNWYQQKPGKAPKLLIYAASSLQSGVPSRFSGSGSGTDFTLTISSLQPEDFATYYCQQSVGLSFGGGTKVEIKR | 7300
Ab21 (antibody, human IgG1, kappa, V domains shown, full-length human IgG) VH: EVQLVQSGAEVKKPGASVKVSCKASGYTFTGYDMHWVRQAPGQGLEWMGWINPNSGATNFPQKFQGRVTMTRDTSITTAYMDLSRLRSDDTAVYYCARESGDDAFDIWGQGTMVTVSS VL: DIVMTQSPSSLSASVGDRVTITCRASQSISSYLNWYQQKPGKAPKLLIYAASSLQYGVPSRFSGSGSGTDFTLTISSLQPEDFATYYCQQSYSTSFGGGTKVEIKR | 13100

Now turn to the next binder.
Q. Value lookup for HTRF Ratio; key = Abcs20 (antibody, human IgG1, kappa, V domains shown, chain-shuffled IgG) VH: EVQLVQSGAEVKKPGASVKVSCKASGYTFTGYYMHWVRQAPGQGLEWMGWINPKNGDTEFPQKFQGRVTMTRDTSITTAYMDLSRLRSDDTAVYYCARESGDDAFDIWGQGTMVTVSS VL: DIVMTQSPSSLSASVGDRVTITCRASQSISSYLNWYQQKPGKAPKLLIYAASSLQSGVPSRFSGSGSGTDFTLTISSLQPEDFATYYCQQSVGLSFGGGTKVEIKR
A. 3970
